test system: RARg:RXRa (NR concentration 270 nM, RXRa partner concentration 90 nM); assay: PBM binding z-score (relative to random genomic background probes); higher = stronger binding; sequences stand for … in GC…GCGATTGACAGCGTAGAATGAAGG
Reported Property: PBM binding z-score
Give bare numbers.

// known answers, use as guide
TCTATTAGTTGAAGGGCAACAGACGAGTCCGTTT; 0.634
TCTAGCAGGCCTGAGGGTCACTCAAGAGGTACGG; 2.29

Please look at the items below and tell me PBM binding z-score for each one, in order.
1. CATACAGGGTCAGCTAGGCCAGCGTAGGGACGGC
2. CCGACTGGGCCATCAGGTCATTGATATCAACGTT
3. AATTCAGGGTCATCGTAGGCCAGAGTACGCACAG
4. GGAGCGAGGGCAAGTTGATAGCAGAGTTTGATGG
5. ACTAGCAGGCCAAGGTTGGGTCACTCAAACAAAG
6. AGTCAAAGCTCACTAGGTAACGTAAGATTCAGCT
7. TCTAGTTGGTCACGGAGGTCGCACACGACGGGTA
8. CCTACTGGGCCAAGGACATTGATCAGTCAAAGCA

// result
1: 4.42; 2: 2.06; 3: 6.21; 4: 1.41; 5: 1.64; 6: -0.184; 7: 2.11; 8: 0.0324
